FYI, the data here is from patent CN1930187A.

Reported titre, antigen binding (抗原结合) (titre (1:x dilution)) values for a set of binders
Target: EGFRvIII-rabbit Fc fusion protein (EGFRvIII-RbFc) (human; rabbit) (UniProt P00533)
Test: ELISA, transfection supernatant titrated on EGFRvIII-Rab Ig Fc coat

# return recorded titre, antigen binding (抗原结合) (titre (1:x dilution)) for input SC-EGFRvIII-XG1-342 (antibody, human IgG1, V domains shown) VH: QVQLVESGGGVVQPGRSLRLSCVASGFTLSSYGMHWVRQAPGKGLEWVAVTSYDGSKKDYADSVKGRFTISRDNSKNTLYLQMNSLRAEDTAVYYCVSEGYCDSTSCYKYYYYGMDVWGQGTTVTVSS VL: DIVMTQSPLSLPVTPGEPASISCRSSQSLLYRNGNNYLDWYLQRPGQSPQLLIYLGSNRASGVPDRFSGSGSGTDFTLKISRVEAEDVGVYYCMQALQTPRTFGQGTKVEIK
> 64

# return recorded titre, antigen binding (抗原结合) (titre (1:x dilution)) for input SC-EGFRvIII-XG1-250 (antibody, human IgG1, V domains shown) VH: EGQLLESGGGWVQPGESLRLSCAASGFTFSSYAMSWVRQAPGKGLEWVSAISGSGGSTNYADSVKGRFTISRDNSKNTLYLQVNSLRVEDTAVYYCAGSSGWSEYWGQGTLVTVSS VL: DIQMTQSPSSLSASVGDSVTITCRTSQGIRKNLGWYQQKPGKAPKRLIYAASSLQSGVPSRFSGSGSGTEFTLTISRLQPEDFATYYCLQHHSYPLTFGGGTRVEIR
> 64

# return recorded titre, antigen binding (抗原结合) (titre (1:x dilution)) for input SC-EGFRvIII-XG2-170 (antibody, human IgG1, V domains shown) VH: QVQLQQSGPGLVKPSQTLSLTCAISGDSVSSNNAAWNWIRQSPARGLEWLGRTYYRSKWYNDYVVSVKSRITINPDTSKNQFSLQLNSVTPEDTAVYYCVRATAFDYWGQGTLVTVSS VL: AIVLTQTPLSSPVTLGQPASISCRSSQSLVHRDGNTYLSWLQQRPGQPPRLLIYKISNRFSGVPDRFSGSGAGTDFTLKISRVEPDDVGVYYCMHTTQLPWTFGQGTKVEIK
> 64
